biological target: Tyrosine-protein kinase Fes/Fps (Homo sapiens); details: at 0.1 µM
Description: GSK_PKIS: FES mean inhibition at 0.1 uM [Nanosyn]
Each entry gets no if its inhibition stays under 3%, and yes if its inhibition is 3% or above.

Previously resolved entries follow.
COc1cccc(-n2ncc3c(N/N=C/c4ccc(F)cc4)ncnc32)c1 no
CCn1c(-c2nonc2N)nc2c(C#CC(C)(C)O)nc(OC[C@H](N)c3ccccc3)cc21 yes
N#Cc1c(NC(=O)c2ccc(F)cc2)sc2c1CCCC2 no
Clc1ccc(-c2nn3ncccc3c2-c2ccnc(Nc3ccccc3)n2)cc1 no

From here, focus on the item given below.
Is it the case that Cc1ccc(O)cc1Nc1ccnc2cc(-c3ccccn3)ccc12 has inhibition reaching or exceeding 3%?
yes
